system: Staphylococcus aureus; experiment: Antibacterial activity against methicillin resistant Staphylococcus aureus USA300 FPR3757 assessed as inhibition of bacterial growth incubated for 20 to 24 hrs by microbroth serial dilution method; type: functional; details: time 20-24 hrs, read-out: MIC100
Measure: MIC

| Smiles data | Result |
| --- | --- |
| C=C[C@]1(C)C[C@@H](OC(=O)Cn2cc(-c3ccnc(NC(=O)c4cnc(OC)cn4)c3)nn2)[C@]2(C)[C@H](C)CC[C@]3(CCC(=O)[C@H]32)[C@@H](C)[C@@H]1O | 0.25 µg/mL |
| C=C[C@]1(C)C[C@@H](OC(=O)Cn2cc(-c3cncc(C(=O)Nc4ccc(N)nc4)c3)nn2)[C@]2(C)[C@H](C)CC[C@]3(CCC(=O)[C@H]32)[C@@H](C)[C@@H]1O | 0.25 µg/mL |
| C=C[C@]1(C)C[C@@H](OC(=O)Cn2cc(-c3ccc(Cn4ccnc4)nc3)nn2)[C@]2(C)[C@H](C)CC[C@]3(CCC(=O)[C@H]32)[C@@H](C)[C@@H]1O | 1 µg/mL |

MIC recorded for this compound, C=C[C@]1(C)C[C@@H](OC(=O)Cn2cc(-c3cccc(C(=O)Nc4ccccc4)c3)nn2)[C@]2(C)[C@H](C)CC[C@]3(CCC(=O)[C@H]32)[C@@H](C)[C@@H]1O , is 0.25 µg/mL

MIC recorded for this compound, C=C[C@]1(C)C[C@@H](OC(=O)Cn2cc(-c3ccc(NC(=O)c4ccc(OC)cc4)cc3)nn2)[C@]2(C)[C@H](C)CC[C@]3(CCC(=O)[C@H]32)[C@@H](C)[C@@H]1O , is 8 µg/mL

---

system: Staphylococcus aureus; assay: Antibacterial activity against methicillin resistant Staphylococcus aureus USA300 FPR3757 assessed as inhibition of bacterial growth incubated for 20 to 24 hrs by microbroth serial dilution method; type: functional; conditions: time 20-24 hrs, read-out: MIC100
Measure: MIC (µg/mL)
Answer format: numeric, µg/mL implied, no suffix.

Example results:
| Compound | Units text | MIC |
| --- | --- | --- |
| C=C[C@]1(C)C[C@@H](OC(=O)Cn2cc(-c3ccc(Cn4ccnc4)cc3)nn2)[C@]2(C)[C@H](C)CC[C@]3(CCC(=O)[C@H]32)[C@@H](C)[C@@H]1O | µg/mL | 0.25 |
| C=C[C@]1(C)C[C@@H](OC(=O)Cn2cc(-c3ccc(Cn4cnc5c(=O)[nH]c(N)nc54)cc3)nn2)[C@]2(C)[C@H](C)CC[C@]3(CCC(=O)[C@H]32)[C@@H](C)[C@@H]1O | µg/mL | 2 |
| C=C[C@]1(C)C[C@@H](OC(=O)Cn2cc(-c3cccc(Nc4ncnc5[nH]cnc45)c3)nn2)[C@]2(C)[C@H](C)CC[C@]3(CCC(=O)[C@H]32)[C@@H](C)[C@@H]1O | µg/mL | 0.06 |
| C=C[C@]1(C)C[C@@H](OC(=O)Cn2cc(-c3ccc(Cn4ccc5c(N)ncnc54)c(O)c3)nn2)[C@]2(C)[C@H](C)CC[C@]3(CCC(=O)[C@H]32)[C@@H](C)[C@@H]1O | µg/mL | 0.06 |

For the next question, use this compound.
Item C=C[C@]1(C)C[C@@H](OC(=O)CS[C@@H]2C[C@H]3CC[C@@H](C2)N3C)[C@]2(C)[C@H](C)CC[C@]3(CCC(=O)[C@H]32)[C@@H](C)[C@@H]1O [RETAPAMULIN] ; assay system Staphylococcus aureus; MIC reported as 0.25

---

Attribute: log10(CLint scaled at 1 µM)
test: Metabolic stability in human liver assessed as intrinsic clearance at 1 uM measured up to 30 mins by LC-MS/MS analysis; type: ADME, tissue-based; settings: read-out: CLH
Scale type: logarithmic (base 10). Underlying CLint scaled at 1 µM unit: mL/min/kg.

| Molecule | Result |
| --- | --- |
| C=C[C@]1(C)C[C@@H](OC(=O)Cn2cc(-c3cncc(C(=O)Nc4ncnc5[nH]cnc45)c3)nn2)[C@]2(C)[C@H](C)CC[C@]3(CCC(=O)[C@H]32)[C@@H](C)[C@@H]1O | 3.24 |
| C=C[C@]1(C)C[C@@H](OC(=O)CS[C@@H]2C[C@H]3CC[C@@H](C2)N3C)[C@]2(C)[C@H](C)CC[C@]3(CCC(=O)[C@H]32)[C@@H](C)[C@@H]1O | 3.42 |
| C=C[C@]1(C)C[C@@H](OC(=O)Cn2cc(-c3ccc(C(O)c4ccc5c(N)ncnn45)cn3)nn2)[C@]2(C)[C@H](C)CC[C@]3(CCC(=O)[C@H]32)[C@@H](C)[C@@H]1O (stereo not given in full) | 3.66 |
| C=C[C@]1(C)C[C@@H](OC(=O)Cn2cc(-c3ccc(Cn4ccc5c(N)ncnc54)nc3)nn2)[C@]2(C)[C@H](C)CC[C@]3(CCC(=O)[C@H]32)[C@@H](C)[C@@H]1O | 3.52 |

log10(CLint scaled at 1 µM) recorded for this molecule, C=C[C@]1(C)C[C@@H](OC(=O)Cn2cc(-c3ccc(Nc4ncnc5[nH]cnc45)cc3)nn2)[C@]2(C)[C@H](C)CC[C@]3(CCC(=O)[C@H]32)[C@@H](C)[C@@H]1O , is 2.47

---

experiment: Metabolic stability in mouse liver assessed as intrinsic clearance at 1 uM measured up to 60 mins by LC-MS/MS analysis; assay type: ADME, tissue-based; conditions: read-out: CLH
Measure: CLint scaled at 1 µM (L/h/kg)
Answer format: numeric, L/h/kg implied, no suffix.

Example results:
| Smiles data | CLint scaled at 1 µM (L/h/kg) |
| --- | --- |
| C=C[C@]1(C)C[C@@H](OC(=O)CSC(C)(C)CNC(=O)[C@H](N)C(C)C)[C@]2(C)[C@H](C)CC[C@]3(CCC(=O)[C@H]32)[C@@H](C)[C@@H]1O | 212 |
| C=C[C@]1(C)C[C@@H](OC(=O)Cn2cc(-c3ccc(Cn4ccc5c(N)ncnc54)nc3)nn2)[C@]2(C)[C@H](C)CC[C@]3(CCC(=O)[C@H]32)[C@@H](C)[C@@H]1O | 566 |
| C=C[C@]1(C)C[C@@H](OC(=O)Cn2cc(-c3cncc(C(=O)Nc4ccc(OC)nc4)c3)nn2)[C@]2(C)[C@H](C)CC[C@]3(CCC(=O)[C@H]32)[C@@H](C)[C@@H]1O | 566 |

CLint scaled at 1 µM recorded for this compound, C=C[C@]1(C)C[C@@H](OC(=O)Cn2cc(-c3cncc(C(=O)Nc4ncnc5[nH]cnc45)c3)nn2)[C@]2(C)[C@H](C)CC[C@]3(CCC(=O)[C@H]32)[C@@H](C)[C@@H]1O , is 246

---

Attribute: MIC
test system: Enterococcus faecium; experiment: Antibacterial activity against vancomycin, ampicillin and ciprofloxacin resistant Enterococcus faecium clinical isolate 1 assessed as inhibition of bacterial growth incubated for 20 to 24 hrs by microbroth serial dilution method; assay type: functional; conditions: time 20-24 hrs, read-out: MIC100
Answer format: numeric, µg/mL implied, no suffix.

Example results:
| Smiles data | Subject of test | Result |
| --- | --- | --- |
| C=C[C@]1(C)C[C@@H](OC(=O)Cn2cc(-c3cncc(C(=O)Nc4ccc(N)nc4)c3)nn2)[C@]2(C)[C@H](C)CC[C@]3(CCC(=O)[C@H]32)[C@@H](C)[C@@H]1O | Enterococcus faecium | 1 |
| C=C[C@]1(C)C[C@@H](OC(=O)Cn2cc(-c3cccc(Nc4cc(N)ncn4)c3)nn2)[C@]2(C)[C@H](C)CC[C@]3(CCC(=O)[C@H]32)[C@@H](C)[C@@H]1O | Enterococcus faecium | 0.25 |
| C=C[C@]1(C)C[C@@H](OC(=O)Cn2cc(-c3cccc(Nc4ncnc5[nH]cnc45)c3)nn2)[C@]2(C)[C@H](C)CC[C@]3(CCC(=O)[C@H]32)[C@@H](C)[C@@H]1O | Enterococcus faecium | 0.25 |
| C=C[C@]1(C)C[C@@H](OC(=O)Cn2cc(-c3ccc(Cn4ccc5c(N)ncnc54)nc3)nn2)[C@]2(C)[C@H](C)CC[C@]3(CCC(=O)[C@H]32)[C@@H](C)[C@@H]1O | Enterococcus faecium | 0.015 |
| C=C[C@]1(C)C[C@@H](OC(=O)Cn2cc(-c3cncc(NC(=O)c4cnc(OC)cn4)c3)nn2)[C@]2(C)[C@H](C)CC[C@]3(CCC(=O)[C@H]32)[C@@H](C)[C@@H]1O | Enterococcus faecium | 0.06 |

For the next question, use this compound.
MIC recorded for this compound, C=C[C@]1(C)C[C@@H](OC(=O)Cn2cc(-c3cncc(C(=O)Nc4ccc(OC)nc4)c3)nn2)[C@]2(C)[C@H](C)CC[C@]3(CCC(=O)[C@H]32)[C@@H](C)[C@@H]1O , is 0.12

---

tested on: Staphylococcus aureus; assay: Antibacterial activity against methicillin resistant Staphylococcus aureus USA300 FPR3757 assessed as inhibition of bacterial growth incubated for 20 to 24 hrs by microbroth serial dilution method; format: functional; conditions: time 20-24 hrs, read-out: MIC100
Measure: MIC
Put your answer as a value accompanied by its unit after it.

Example results:
| Molecule | Measure | Result |
| --- | --- | --- |
| C=C[C@]1(C)C[C@@H](OC(=O)Cn2cc(-c3cncc(C(=O)Nc4ncnc5[nH]cnc45)c3)nn2)[C@]2(C)[C@H](C)CC[C@]3(CCC(=O)[C@H]32)[C@@H](C)[C@@H]1O | MIC | 0.06 µg/mL |
| C=C[C@]1(C)C[C@@H](OC(=O)Cn2cc(-c3ccc(CNc4cc(N)ncn4)cc3)nn2)[C@]2(C)[C@H](C)CC[C@]3(CCC(=O)[C@H]32)[C@@H](C)[C@@H]1O | MIC | 0.03 µg/mL |
| C=C[C@]1(C)C[C@@H](OC(=O)Cn2cc(-c3cncc(C(O)c4ccc5c(N)ncnn45)c3)nn2)[C@]2(C)[C@H](C)CC[C@]3(CCC(=O)[C@H]32)[C@@H](C)[C@@H]1O (stereo not given in full) | MIC | 0.25 µg/mL |
| C=C[C@]1(C)C[C@@H](OC(=O)Cn2cc(-c3ccc(Nc4ncnc5[nH]cnc45)cc3)nn2)[C@]2(C)[C@H](C)CC[C@]3(CCC(=O)[C@H]32)[C@@H](C)[C@@H]1O | MIC | 0.12 µg/mL |
| CC(=O)O[C@H]1C[C@@]2(C)[C@@H](C[C@@H](O)[C@H]3[C@@]4(C)CC[C@@H](O)[C@@H](C)[C@@H]4CC[C@@]32C)/C1=C(\CCC=C(C)C)C(=O)O [FUSIDIC ACID] | MIC | 0.25 µg/mL |

MIC recorded for this molecule, C=C[C@]1(C)C[C@@H](OC(=O)Cn2cc(-c3cncc(C(=O)Nc4ccccn4)c3)nn2)[C@]2(C)[C@H](C)CC[C@]3(CCC(=O)[C@H]32)[C@@H](C)[C@@H]1O , is 0.06 µg/mL

MIC recorded for this molecule, C=C[C@]1(C)C[C@@H](OC(=O)Cn2cc(-c3ccc(Cn4cc(C)c(=O)[nH]c4=O)nc3)nn2)[C@]2(C)[C@H](C)CC[C@]3(CCC(=O)[C@H]32)[C@@H](C)[C@@H]1O , is 0.12 µg/mL

MIC recorded for this molecule, C=C[C@]1(C)C[C@@H](OC(=O)Cn2cc(-c3ccc(Cn4cnc5c(=O)[nH]c(N)nc54)nc3)nn2)[C@]2(C)[C@H](C)CC[C@]3(CCC(=O)[C@H]32)[C@@H](C)[C@@H]1O , is 8 µg/mL

MIC recorded for this molecule, C=C[C@]1(C)C[C@@H](OC(=O)Cn2cc(-c3cncc(C(=O)Nc4ccc(OC)nc4)c3)nn2)[C@]2(C)[C@H](C)CC[C@]3(CCC(=O)[C@H]32)[C@@H](C)[C@@H]1O , is 0.03 µg/mL

MIC recorded for this molecule, C=C[C@]1(C)C[C@@H](OC(=O)Cn2cc(-c3cccc(Nc4cc(N)ncn4)c3)nn2)[C@]2(C)[C@H](C)CC[C@]3(CCC(=O)[C@H]32)[C@@H](C)[C@@H]1O , is 0.03 µg/mL
